# Assay Protocol: Serum level after intraperitoneal administration
# Assay type: in vivo
# Protocol Conditions: mouse, serum, ip; 5 min, 200 mg/kg intraperitoneal (1% CMC), biological assay, mice n=5
Endpoint Label: concentration at 5 min (ng/mL)
Write the number in ng/mL without appending the unit.

Supply reported concentration at 5 min belonging to this compound: COC(=O)C1CC(O)C(O)C(n2cc(CC#N)c3c(OC)cccc32)O1 (stereo not shown) [SF-2140]
30000

* * *

# Assay Protocol: Serum level after intraperitoneal administration
# Assay type: in vivo
# Protocol Conditions: mouse, serum, ip; 60 min, 200 mg/kg intraperitoneal (1% CMC), biological assay, mice n=5
# Method: | Dose: 200 mg/kg (1% CMC)
Endpoint Label: concentration at 1 h
State the result as a value with its unit after it.

Supply reported concentration at 1 h belonging to this molecule: COC(=O)C1CC(O)C(O)C(n2cc(CC#N)c3c(OC)cccc32)O1 (stereo not shown)
27000 ng/mL

* * *

# Assay Protocol: Serum level after oral administration
# Type: in vivo
# Protocol Conditions: mouse, serum; 30 min, 125 mg/kg oral (5% arabin gum), HPLC, mice n=3
Endpoint Label: concentration at 0.5 h (ng/mL)
Write the number in ng/mL without appending the unit.

Supply reported concentration at 0.5 h belonging to this compound: COC(=O)C1CC(O)C(O)C(n2cc(CC#N)c3c(OC)cccc32)O1 (stereo not shown)
15000

* * *

# Assay Protocol: Serum level after intraperitoneal administration
# Assay type: in vivo
# Protocol Conditions: mouse, serum, ip; 10 min, 200 mg/kg intraperitoneal (1% CMC), biological assay, mice n=5
Endpoint Label: concentration at 10 min (ng/mL)
Write the number in ng/mL without appending the unit.

Supply reported concentration at 10 min belonging to this compound: COC(=O)C1CC(O)C(O)C(n2cc(CC#N)c3c(OC)cccc32)O1 (stereo not shown)
42000

* * *

# Assay Protocol: Serum level after intraperitoneal administration
# Format: in vivo
# Protocol Conditions: mouse, serum, ip; 20 min, 200 mg/kg intraperitoneal (1% CMC), biological assay, mice n=5
Endpoint Label: concentration at 20 min (µg/mL)
Write the number in µg/mL without appending the unit.

Supply reported concentration at 20 min belonging to this compound: COC(=O)C1CC(O)C(O)C(n2cc(CC#N)c3c(OC)cccc32)O1 (stereo not shown)
55
